Target: T1, ScPif1 (Saccharomyces cerevisiae, UniProt P07271 236-753)
T1 sequence: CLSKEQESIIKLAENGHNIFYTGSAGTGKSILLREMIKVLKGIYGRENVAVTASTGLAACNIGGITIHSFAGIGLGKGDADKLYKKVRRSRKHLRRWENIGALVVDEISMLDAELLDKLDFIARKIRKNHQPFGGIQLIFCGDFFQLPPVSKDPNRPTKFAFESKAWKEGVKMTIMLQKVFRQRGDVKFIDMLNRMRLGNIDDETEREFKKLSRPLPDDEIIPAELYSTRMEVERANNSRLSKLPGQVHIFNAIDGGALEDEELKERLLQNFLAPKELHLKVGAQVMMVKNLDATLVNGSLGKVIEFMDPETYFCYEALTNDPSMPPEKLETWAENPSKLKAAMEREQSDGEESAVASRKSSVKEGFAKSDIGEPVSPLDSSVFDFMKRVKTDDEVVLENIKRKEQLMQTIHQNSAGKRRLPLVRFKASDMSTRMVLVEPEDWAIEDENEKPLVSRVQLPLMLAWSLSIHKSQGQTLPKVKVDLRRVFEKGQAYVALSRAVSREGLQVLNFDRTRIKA
Assay: fluorescence anisotropy; no nucleotide; Fluorescence anisotropy: 20 mM HEPES-NaOH pH 7.5, 100 mM NaCl, 10% glycerol, 20 C, 10 nM FAM-DNA, 30 min, quadratic fit
Details: protein: recombinant; tags: N-terminal SUMO tag (Ni-NTA purified), cleaved by Ulp protease; label: 3' 6-FAM; single strand
PROPERTY NAME: Kd
Could you kindly put the unit after your number?

## Input What does the record list as Kd for TTTTTTT (ssDNA) [T7-FAM] ?
## Output 12.8 nM

Data origin, for the record: paper PMC11275212
